Target: IP6KA^M85V (Entamoeba histolytica, UniProt N9UNA8, M85V)
Assay: NMR activity assay for EhIP6KA constructs
observed property: IC50 (nM)
Supply the numeric figure in nM, leaving out any unit text.

IC50 in this record for O=C(O)c1ccc2c(c1)C(=O)N(c1ccc(-c3nc4ccc(N5C(=O)c6ccc(C(=O)O)cc6C5=O)cc4[nH]3)cc1)C2=O [FMP-201300] : 780
